Experiment Summary: Quantitative High-Throughput drug screen in 47 multiple myeloma cell lines against the NCATS MIPE library collection: KMS12BM_JCRB cell viability assay (AID 1918971); also: potency is read from the fitted curve at half-maximal effect; nearly all actives have a fitted effect of over 35% in size
Recorded Conditions: KMS12BM myeloma viability, CellTiter-Glo ATP, 48 h; series mostly up to 45.8 µM
Records with an inconclusive call do not appear. The source made the active and inactive calls. Calls follow the shape of the dose curve; as a rule, active = well fitted cell-killing curve with a large enough effect; inconclusive = small, poorly fitted or top-dose-only effect, or effect the other way; inactive = no such curve, though single readings can be large or run the other way.
Value Type: Potency

Query block: Name the recorded Potency for COc1cc(-c2nn(C3CCC(N4CCN(C(C)=O)CC4)CC3)c3ncnc(N)c23)ccc1NC(=O)c1cc2ccccc2n1C (stereo unspecified) .
Result block: 10.5 µM (active)

Query block: May I ask what Potency has been recorded for O=C(C=Cc1cccc(S(=O)(=O)Nc2ccccc2)c1)NO ?
Result block: 1.91 µM (active)

Query block: Which Potency is listed for CNC(=O)c1c(F)cccc1Nc1nc(Nc2cc3c(cc2OC)CCN3C(=O)CN(C)C)nc2[nH]ccc12 ?
Result block: 14.8 µM (active)

Query block: I would be grateful if you could share the reported Potency for CC[C@@]1(O)C(=O)OCc2c1cc1n(c2=O)Cc2cc3cc(O)ccc3nc2-1 .
Result block: 0.526 µM (active)

Query block: Looking for the measured Potency of CCC(=C(c1ccccc1)c1ccc(OCCN(C)C)cc1)c1ccccc1 , can you help?
Result block: 26.4 µM (active)

Query block: I am curious: what Potency value has been reported for CCCCN1CCC(CNC(=O)c2c3n(c4ccccc24)CCCO3)CC1 ?
Result block: 10.5 µM (active)
